# System: 883617-216-R-J1-PDC complex spheroid viability
# assay-procedure: Anticancer human tumor 883617-216-R-J1-PDC patient-derived bladder carcinoma cell line growth inhibition [POLQ]
# condition-context: second compound 0.0316 µM; first compound 0.01 µM; stronger effect = lower value
quantity: viability, T/C (%)
Give bare numbers, in %.

compound	tgt	quantity	unit-info	quantitative-readout
C=CCn1c(=O)c2cnc(Nc3ccc(N4CCN(C)CC4)cc3)nc2n1-c1cccc(C(C)(C)O)n1 + Cc1cccc(N(C)C(=O)C2C(O)CCN2c2nc(C)cc(C(F)(F)F)c2C#N)c1	883617-216-R-J1-PDC complex spheroid viability	viability, T/C	%	101

Parameter requested: viability, T/C. Apply to each item below.
1. CC[C@@]1(O)C(=O)OCc2c1cc1n(c2=O)Cc2cc3c(CN(C)C)c(O)ccc3nc2-1 + COC1C(OC(N)=O)C(O)C(Oc2ccc3c(O)c(NC(=O)c4ccc(O)c(CC=C(C)C)c4)c(=O)oc3c2C)OC1(C)C
2. COc1cccc(OCCCN)c1-c1cc(Nc2cnc(C#N)cn2)n[nH]1 + Nc1ccc(C#CCN(C(=O)Cc2ncc(C(F)(F)F)cc2C(F)(F)F)c2ccc(F)cc2)nn1

1. 89.1
2. 77

====

Answer each item with its documented pIC50.
# System: 883617-216-R-J1-PDC complex spheroid viability
# assay-procedure: Anticancer human tumor 883617-216-R-J1-PDC cell line growth inhibition [POLQ];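 further: spheroids exposed to compounds for seven days before readout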
# condition-context: curve of first compound; second compound 0.0316 µM
pIC50: −log10 of the molar value.

These solved cases illustrate the format of a correct answer.
compound	tgt	pIC50
COc1cccc(OCCCN)c1-c1cc(Nc2cnc(C#N)cn2)n[nH]1 + Cc1cccc(N(C)C(=O)C2C(O)CCN2c2nc(C)cc(C(F)(F)F)c2C#N)c1	883617-216-R-J1-PDC complex spheroid viability	7.15
COc1cc2cc(C(=O)CCC(=O)O)sc2cc1OC + COC1C(OC(N)=O)C(O)C(Oc2ccc3c(O)c(NC(=O)c4ccc(O)c(CC=C(C)C)c4)c(=O)oc3c2C)OC1(C)C	883617-216-R-J1-PDC complex spheroid viability	< 5.00
Nc1ccn(C2OC(CO)C(O)C2(F)F)c(=O)n1 (centres undefined) + COC1C(OC(N)=O)C(O)C(Oc2ccc3c(O)c(NC(=O)c4ccc(O)c(CC=C(C)C)c4)c(=O)oc3c2C)OC1(C)C	883617-216-R-J1-PDC complex spheroid viability	> 7.50
C#Cc1c(F)ccc2cc(O)cc(-c3ncc4c(N5CC6CCC(C5)N6)nc(OCC56CCCN5CC(F)C6)nc4c3F)c12 (centres undefined) + Cc1cccc(N(C)C(=O)C2C(O)CCN2c2nc(C)cc(C(F)(F)F)c2C#N)c1	883617-216-R-J1-PDC complex spheroid viability	< 5.00
CC1COCCN1c1cc(C2(S(C)(=N)=O)CC2)nc(-c2ccnc3[nH]ccc23)n1 (centres undefined) + COC1C(OC(N)=O)C(O)C(Oc2ccc3c(O)c(NC(=O)c4ccc(O)c(CC=C(C)C)c4)c(=O)oc3c2C)OC1(C)C	883617-216-R-J1-PDC complex spheroid viability	5.58

Parameter requested: pIC50. Apply to each item below.
1. CC(=O)O[C@H]1C(=O)[C@@]2(C)[C@H]([C@H](OC(=O)c3ccccc3)[C@]3(O)C[C@H](OC(=O)[C@H](O)[C@@H](NC(=O)c4ccccc4)c4ccccc4)C(C)=C1C3(C)C)[C@]1(OC(C)=O)CO[C@@H]1C[C@@H]2O + Nc1ccc(C#CCN(C(=O)Cc2ncc(C(F)(F)F)cc2C(F)(F)F)c2ccc(F)cc2)nn1
2. C=CC(=O)N1CCN(c2nc(=O)n(-c3c(C)ccnc3C(C)C)c3nc(-c4c(O)cccc4F)c(F)cc23)C(C)C1 (centres undefined) + Cc1cccc(N(C)C(=O)C2C(O)CCN2c2nc(C)cc(C(F)(F)F)c2C#N)c1
3. CCc1cc2c(N3CCc4c(cc(Cn5ccnc5)cc4-c4cn(C)nc4C(F)(F)F)C3=O)ccnc2c(OC)n1 + Nc1ccc(C#CCN(C(=O)Cc2ncc(C(F)(F)F)cc2C(F)(F)F)c2ccc(F)cc2)nn1
4. C=CC(=O)N1CCN(c2nc(=O)n(-c3c(C)ccnc3C(C)C)c3nc(-c4c(O)cccc4F)c(F)cc23)C(C)C1 (centres undefined) + COC1C(OC(N)=O)C(O)C(Oc2ccc3c(O)c(NC(=O)c4ccc(O)c(CC=C(C)C)c4)c(=O)oc3c2C)OC1(C)C

7.92
< 5.00
5.02
< 5.00
